Molecular target: Homeobox protein Hox-A13 (Mus musculus)
Test: inhibitors of HoxA13-DNA binding, primary screen, biochemical, fluorescence polarization, labeled oligonucleotide (AID 1185)
Details: 15 min, higher = more signal, called active from +8 up or from −8 down
Quick rule for you: z-score at -3 or higher means t, lower means f.

A selection of reference data follows.
molecule	assigned class
COC(=O)C1=CC(CCCO)=CC(C2CC2)N(C)C=C1C(=O)OC (configuration not stated)	f
CC(=O)NCCCC[C@@H]1NC(=O)[C@H]2C[C@@H](C(=O)NCCCC[N+](C)(C)C)[C@@H](c3cccc(OCCO)c3)N2C1=O	t
COCCOC(=O)N1C(=O)[C@@]2(c3cc(C#Cc4ccc(OC)cc4)ccc31)[C@H](c1ccccc1OCCO)N1[C@H](c3ccccc3)[C@H](c3ccccc3)OC(=O)[C@H]1[C@@H]2C(=O)N1CCCCCCC1	t
CCCCC=C[C@@H](NC(=O)c1ccc(-c2ccccc2)cc1)c1ccccc1	f

Asked: Check if z-score >= -3 (inclusive). Item: NC(=O)N1C(=O)C2C(C1=O)C1C=C(CCCO)C2C(c2cccs2)N1Cc1cccc(OC(F)(F)F)c1 (configuration not stated)
Given back: f

Asked: hey, is z-score for this one >= -3? COC(=O)[C@@]1(Cc2ccc(OC)cc2)[C@H]2c3cc(C(=O)N4CCCC4)n(Cc4c(-c5ccccc5)noc4C)c3C[C@H]2CN1C(=O)c1ccccc1
Given back: f

Asked: Form field: z-score at least -3? Entry: CCCCCCc1nc(C2CC2)cc2c1[Si](C(C)C)(C(C)C)OC2
Given back: t

----------
Experiment: basal S. cerevisiae growth modulation, no modifier, primary screen, OD600, strain BY4716, 24 h, basal condition (AID 1173)
Details: OD600, 24 h, higher = more signal, called active from +8 up or from −8 down
Respond with 1.0 for z-score values of -0.4 and above, 0.0 for values below.

Here are 2 compounds together with their reported answers.
compound	assigned class
COCCOC(=O)N1C(=O)[C@@]2(c3cc(C#CC4=CCCCC4)ccc31)[C@H](c1ccc(OCCO)cc1)N1[C@H](c3ccccc3)[C@H](c3ccccc3)OC(=O)[C@H]1[C@@H]2C(=O)N1CCN(c2ncccn2)CC1	1.0
CCOc1cc(C(O)C2C=CC3C(=O)N(C)C(=O)C3N2Nc2ccccc2)ccc1O (stereo not given)	1.0

Now examine the next entry.
Asked: Does COC(=O)c1c2oc(c1C(=O)OC)C(=O)N(C)Cc1cn(nn1)C[C@H](Cc1ccccc1)NC(=O)N[C@H](CO)CC2 have a reported z-score of at least -0.4?
Given back: 1.0

----------
Biological target: Torsin-1A-interacting protein 1 (Homo sapiens)
Test: LAP1 binders from COS7 cell lysate, primary screen, small-molecule microarray, 635/667 nm fluorescence (AID 1116)
Details: COS7-hLAP1 lysate binding, 635 nm fluorescence, higher = more signal
observation type: composite z-score
Numbers only.

Here is how some compounds turned out for composite z-score.
compound	observation type	readout value
CCOC(=O)C[C@H]1[C@H](OC(=O)c2ccccc2-c2ccccc2)[C@@H](NC(=O)C2CCCCC2)c2cc(OCCCO)ccc2N1C(=O)Cc1ccc(OC)cc1	composite z-score	0.3
C=CCC(OC(C)=O)[C@@H]1[C@@H](N(Cc2cc3ccccc3o2)C(=O)c2ccc(-c3ccccc3)cc2)c2cc(OCCCO)ccc2N1C(=O)c1ccc2ccccc2c1 (stereo partly drawn)	composite z-score	0.612

Now let's try a different one.
Asked: So what's the measured composite z-score for this one? CCOC(=O)C1=CC[C@@H](c2ccccc2C(F)(F)F)N(S(=O)(=O)c2ccc(C)cc2)[C@H]1c1ccc(C#N)cc1
Given back: 0.408

// provenance: PubChem BioAssay
